Catalogue of TGI values
Tested on: NCI-H460 lung
Experiment: NCI tumour cell line growth inhibition, 48 h

CC(C)(C)C(=O)C(Cc1ccccc1)C(=O)C(C)(C)C    > 100 µM
C/C(CCn1[nH]c(=O)ccc1=O)=N\OCCCc1ccccc1    > 100 µM
C[C@]12CC[C@@H]3c4ccc(O)c([N+](=O)[O-])c4CC[C@H]3[C@@H]1CC[C@@H]2NS(=O)(=O)c1cccc(Br)c1    3.56 µM
NC(=O)c1ncn2c1NC(=O)CC2    > 100 µM
OCC(O)C(O)C(O)/C=N/Nc1nc(O)c(/C=C2\C=Nc3ccccc32)[nH]1 (stereo not drawn)    > 100 µM

get_value(item= `O=c1oc2ccc(Br)cc2c(=O)n1-c1ccc(F)cc1F` , readout=TGI) returns 25.6 µM

get_value(item= COc1cc2c(cc1OC)C13CC[N+]4(C)CC5=CCOC6CC(=O)N2C1C6C5CC34[O-] (stereo not drawn) , readout=TGI) returns > 100 µM

get_value(item= CC(O)CC(O)(C(F)(F)F)C(F)(F)F (stereo not drawn) , readout=TGI) returns > 10 µM

get_value(item= `Cc1cc(/N=C/c2ccc(C#N)cc2)n(-c2ccccc2)n1` , readout=TGI) returns > 100 µM

get_value(item= `CCN(CC)CCNC(=O)c1ccc(C)c(OCc2ccccc2)c1[N+](=O)[O-]` , readout=TGI) returns > 100 µM

Reference source: PubChem BioAssay (NCI)
